Cited source: patent US20230414780A1

- Experimental system: T1, murine TfR expressed by murine neuroblastoma Neuro-2a cells (mouse, UniProt Q62351 1-763)
- T1 construct: whole, on cells; also called mTfR (N2a cells)
- T1 sequence (Q62351 whole entry): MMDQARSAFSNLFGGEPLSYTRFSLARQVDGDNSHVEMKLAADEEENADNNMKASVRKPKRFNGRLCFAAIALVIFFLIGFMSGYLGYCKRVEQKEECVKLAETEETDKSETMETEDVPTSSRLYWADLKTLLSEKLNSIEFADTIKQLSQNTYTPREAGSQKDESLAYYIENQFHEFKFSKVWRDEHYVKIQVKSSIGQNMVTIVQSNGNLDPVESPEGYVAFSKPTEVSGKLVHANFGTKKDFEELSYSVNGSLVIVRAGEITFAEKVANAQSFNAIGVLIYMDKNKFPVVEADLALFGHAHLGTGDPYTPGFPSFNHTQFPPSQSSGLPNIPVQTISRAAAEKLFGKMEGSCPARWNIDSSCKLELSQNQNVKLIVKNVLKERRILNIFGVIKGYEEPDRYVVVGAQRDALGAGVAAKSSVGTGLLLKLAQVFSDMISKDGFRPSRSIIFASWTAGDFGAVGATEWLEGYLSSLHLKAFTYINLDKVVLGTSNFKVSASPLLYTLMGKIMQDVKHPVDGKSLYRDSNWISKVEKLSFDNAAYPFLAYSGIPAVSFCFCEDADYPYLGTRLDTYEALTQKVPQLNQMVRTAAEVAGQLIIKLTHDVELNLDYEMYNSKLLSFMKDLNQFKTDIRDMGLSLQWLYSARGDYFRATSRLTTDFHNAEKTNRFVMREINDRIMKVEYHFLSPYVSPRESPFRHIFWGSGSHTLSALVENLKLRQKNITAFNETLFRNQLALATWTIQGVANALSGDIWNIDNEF
- Test description: competition with the fluorescent reference VHH on Neuro-2a cells as in FIG. 25; Ki/app on mTfR
Property measured: Ki (nM)
Write it as a number; the unit nM goes unstated.

* C5-Thiol-Mal-siSOD1m (VHH, chain 1 pos 117: free Cys of the tag coupled by thiol-maleimide chemistry to the maleimide-functionalised siSOD1m duplex (SEQ ID NOs 465/466), written C, Member of the group m173; also called VHH-thiol-Mal-siSOD1m wherein VHH is C5) VHH: EVQLVESGGGVVQPGGSLKLSCVASGTDFSINFIRWYRQAPGKQREFVAGFTATGNTNYADSMKGRFTISRDNTKNAVYLQIDSLKPEDTAVYYCYMLDKWGQGTQVTVSS | 164

Continue with the next binder.
Reported Ki ( B8h1-siSOD1m (VHH, chain 1 pos 125: Gln of the LQR Q-tag carrying the transglutaminase-installed azido linker clicked to the 3' end of the sense strand of the chemically modified siSOD1m duplex (SEQ ID NOs 465/466), written Q, Member of the group m173) VHH: EVQLVESGGGVVQPGGSLRLSCAASGEIFSINFMRWYRQAPGKGLEWVAGFTRDGSTNYPDSVKGRFTISRDNAKNTVYLQMNSLRPEDTAVYYCYMLDTWGQGTQVTVSS ) = 76.1
